System: Hepatitis C virus NS3 helicase
Assay: blockers of NS3h binding to ssDNA – biochemical, fluorescence polarization, LOPAC1280 library, primary screen (AID 687035)
Settings: Purified HCV NS3 helicase, Cy5-dT15 ssDNA binding fluorescence polarization; stronger effect = higher value; concentration not given here
molecules and their reported inhibition
Give a bare numeral; the unit % is implied.

molecule	measured-on	inhibition [%]
CC(C)(Oc1ccc(CCNC(=O)c2ccc(Cl)cc2)cc1)C(=O)O	Hepatitis C virus NS3 helicase	-2
COc1ccccc1OCC(O)CN1CCN(CC(=O)Nc2c(C)cccc2C)CC1 (centres undefined)	Hepatitis C virus NS3 helicase	-7
C[C@](N)(Cc1ccc(O)cc1)C(=O)O	Hepatitis C virus NS3 helicase	-1
O=NN(CCCl)C(=O)NCCCl	Hepatitis C virus NS3 helicase	-4
CCOC(=O)C1=C[C@]2(CC)CCCN3CCc4c(n1c1ccccc41)[C@@H]32	Hepatitis C virus NS3 helicase	-2

Lab book: inhibition of CN(C)CCC=C1c2ccccc2C=Cc2ccccc21 noted as -2

Lab book: inhibition of CCCCC1C(=O)N(c2ccccc2)N(c2ccccc2)C1=O noted as -4

Lab book: inhibition of NCCCCCC(=O)O noted as 1

Lab book: inhibition of CN(C)C(=O)Oc1cccc([N+](C)(C)C)c1 noted as -5

Lab book: inhibition of CC(C)NCC(O)COc1ccc(CCOCC2CC2)cc1 (centres undefined) noted as -6

Lab book: inhibition of NC(N)=NC(=O)Cc1c(Cl)cccc1Cl noted as 1

Lab book: inhibition of O=C(O)c1cccnc1Nc1cccc(C(F)(F)F)c1 noted as -1

Lab book: inhibition of Cc1cc2c(C(C)C)c(O)c(O)c(C=O)c2c(O)c1-c1c(C)cc2c(C(C)C)c(O)c(O)c(C=O)c2c1O noted as -1

====

Test: Wnt pathway potentiators raising nuclear beta-catenin – imaging, WNT3A-conditioned medium, mouse C2C12, NPC library, primary screen (AID 1117326); note: reference of the scale not given here
Settings: stimulation, at 2 µM, stronger effect = higher value
property-measured: nuclear beta-catenin stimulation (%)
Give a bare numeral; the unit % is implied.

> print(dat)
                                   compound  observed.value
1  O=C(CCCCC(=O)Nc1c(I)cc(I)c(C(=O)O)c1I)Nc1c(I)cc(I)c(C(=O)O)c1I             3.3
2        O=C(O)CN1C(=O)c2cccc3cccc(c23)C1=O             0.9
3  Nc1nc2c(c(=O)[nH]1)N(C=O)C(CNc1ccc(C(=O)N[C@@H](CCC(=O)O)C(=O)O)cc1)CN2 (some centres undefined)             4.1

Lab book: nuclear beta-catenin stimulation of O=C1OCCN1/N=C/c1ccc([N+](=O)[O-])o1 noted as -0.6

Lab book: nuclear beta-catenin stimulation of CN1CCN(CC(=O)N2c3ccccc3C(=O)Nc3cccnc32)CC1 noted as -0.5

Lab book: nuclear beta-catenin stimulation of CCCOc1ccccc1-c1nc2n[nH]nc2c(=O)[nH]1 noted as 0.5

Lab book: nuclear beta-catenin stimulation of CC(=O)OCC(=O)[C@@]1(O)[C@H](OC(C)=O)C[C@H]2[C@@H]3CCC4=CC(=O)C=C[C@]4(C)[C@@]3(F)[C@@H](O)C[C@@]21C noted as 1.1

Lab book: nuclear beta-catenin stimulation of O=C1O[C@H](CO)[C@@H](O)[C@H](O)[C@H]1O noted as 1

Lab book: nuclear beta-catenin stimulation of C[N+]1(C)[C@@H]2CC(OC(=O)[C@H](CO)c3ccccc3)C[C@H]1[C@@H]1O[C@@H]12 (some centres undefined) noted as 0.9

====

Assay: compounds altering circadian rhythm period length – cell-based, LOPAC library, luminescence reporter (AID 2774);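 note: values are relative to mean of DMSO wells on each plate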
Details: circadian reporter cells, at 7 µM, actives lie on both sides
Calls of active or inactive are those of the source. How the calls were made is not given here.
compounds and their reported period change

Answered cases to consult:
> print(dat)
                                   compound       observed.value
1  C=Cc1c(C)c2cc3[nH]c(cc4nc(cc5nc(cc1[nH]2)C(C)=C5CCC(=O)O)C(CCC(=O)O)=C4C)c(C)c3C=C   -0.02 h (inactive)
2                                      NCCS    0.02 h (inactive)
3  C[n+]1cc2c3c(ccc2c2ccc4cc5c(cc4c21)OCO5)OCO3   -0.18 h (inactive)
4  Cc1scc2c1N(C(=O)CN1CCN(C)CC1)c1ccccc1NC2=O   0.165 h (inactive)
5       Nc1ccn([C@H]2CC[C@@H](CO)O2)c(=O)n1  -0.095 h (inactive)
6                    CNC[C@H](O)c1cccc(O)c1   -0.48 h (inactive)

Lab book: period change of C[C@@](Cc1ccc(O)c(O)c1)(NN)C(=O)O noted as 0.03 h (inactive)

====

Assay: Wnt pathway potentiators raising nuclear beta-catenin – imaging, WNT3A-conditioned medium, mouse C2C12, NPC library, primary screen (AID 1117326); note: reference of the scale not given here
Settings: at 10 µM, stronger effect = higher value
property-measured: nuclear beta-catenin stimulation (%)
Give a bare numeral; the unit % is implied.

Answered cases to consult:
smiles-repr	unit-abbreviation	nuclear beta-catenin stimulation
CN(C)CCCN1c2ccccc2Sc2ccc(C(F)(F)F)cc21	%	41.9
CCOC(=O)C1=C[C@]2(CC)CCCN3CCc4c(n1c1ccccc41)[C@@H]32	%	0.9
Nc1ccc(O)c(C(=O)O)c1	%	2
NC[C@H]1O[C@H](O[C@H]2[C@H](O)[C@@H](O[C@H]3O[C@H](CO)[C@@H](O)[C@H](N)[C@H]3O)[C@H](N)C[C@@H]2N)[C@H](N)[C@@H](O)[C@@H]1O	%	0.8
CCN(CC)CCOc1ccc(/C(=C(\Cl)c2ccccc2)c2ccccc2)cc1	%	40.9
CCC(=O)O[C@]1(C(=O)SCF)[C@H](C)C[C@H]2[C@@H]3C[C@H](F)C4=CC(=O)C=C[C@]4(C)[C@@]3(F)[C@@H](O)C[C@@]21C	%	0.9

Lab book: nuclear beta-catenin stimulation of CNC[C@H](O)[C@@H](O)[C@H](O)[C@H](O)CO noted as -1.8

Lab book: nuclear beta-catenin stimulation of COc1cc2c3cc1Oc1cc(ccc1O)C[C@@H]1c4c(cc(OC)c(O)c4Oc4ccc(cc4)C[C@@H]3N(C)CC2)CC[N+]1(C)C noted as 3.1

Lab book: nuclear beta-catenin stimulation of CN(C)CC[C@@H](c1ccc(Br)cc1)c1ccccn1 noted as 1.1

Lab book: nuclear beta-catenin stimulation of CC(=O)Nc1ccc(CC(=O)O)cc1 noted as -0.2

====

Test system: R275C
Assay: BK channel mutant inhibitors and activators – cell-based, U2OS BacMam, thallium flux, beta subunits, selectivity assay, profiling panel (AID 1259406);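 note: initial slope of Thallos dye fluorescence rise after thallium is added; log ratio against the mean of 0.3% DMSO vehicle wells on the same plate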
Conditions: U2OS BacMam BK variants, at 30 µM
property-measured: log fold change Tl+ flux
Give the figure only, with no unit attached.

Answered cases to consult:
> print(dat)
                                smiles.repr         property.measured  observed.value
1  C#C[C@]1(O)CC[C@H]2[C@@H]3CCc4cc(O)ccc4[C@H]3CC[C@@]21C  log fold change Tl+ flux         -0.0326
2  O=C1Nc2ccc(Cl)cc2[C@@](C#CC2CC2)(C(F)(F)F)O1  log fold change Tl+ flux          -0.166
3  Cn1c(NCCN(CCO)CCCc2ccc([N+](=O)[O-])cc2)cc(=O)n(C)c1=O  log fold change Tl+ flux          -0.128

Attention now turns to another entry.
Reading of log fold change Tl+ flux for O=c1[nH]cnc2c1ncn2[C@H]1CC[C@@H](CO)O1 with R275C: -0.0353

====

Test: P. berghei load reduction in hepatocytes – cell-based, HepG2, luciferase luminescence, HepG2 viability, primary screen (AID 624349);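 note: 100% = mean of DMSO negative control wells on the same plate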
Conditions: P. berghei liver stage in HepG2, luciferase luminescence, concentration not given here; stronger effect = lower value
property-measured: parasite load remaining (%)
Give a bare numeral; the unit % is implied.

Answered cases to consult:
> print(dat)
                                   compound  observed.value
1  C[C@@H]1C[C@H]2[C@@H]3C[C@H](F)C4=CC(=O)C(Cl)=C[C@]4(C)[C@@]3(F)[C@@H](O)C[C@]2(C)[C@@]1(O)C(=O)CO             117
2          CCN(CC)CCNC(=O)c1ccc(NC(C)=O)cc1            46.9
3  CC(C(=O)O)c1ccc(CC2CCCC2=O)cc1 (stereo unspecified)             108
4                   O=C(O)c1cc(O)c(O)c(O)c1            50.3
5  CC1(C)S[C@@H]2[C@H](N=CN3CCCCCC3)C(=O)N2[C@H]1C(=O)O             101

Attention now turns to another entry.
Lab book: parasite load remaining of CCN(CC)C(=O)c1cccc(C)c1 noted as 18.9
